The origin of these recorded values is patent US12570657B2.

Tested on: K562 (chronic myeloid leukemia)
Protocol details: In vitro cytotoxicity, Calcein AM assay, K-562
Assay type: cell-based
Condition notes: Homo sapiens, K562, 72 h, 3-day Calcein-AM assay
Measured metric: pIC50
For clarity, pIC50 is expressed as the negative log10 of concentration in mol/L.

Ask: Look up and state reported pIC50 for Fc1ccccc1CNc1ncnc2nc[nH]c12
Result: 3.87

Ask: Look up and state reported pIC50 for COc1ccccc1CNc1ncnc2nc[nH]c12
Result: 3.94

Ask: Look up and state reported pIC50 for Fc1cccc(CNc2ncnc3nc[nH]c23)c1
Result: 3.98

====

Test system: winter wheat leaf segments
Protocol details: Senescence bioassay: retention of chlorophyll in excised winter wheat leaf tips
Format: in vivo, Triticum aestivum cv. Hereward
Condition notes: chlorophyll retention, excised wheat leaf tips, 96 h dark
Experimental: Seeds of winter wheat, Triticum aestivum cv. Hereward, were washed under running water for 24 hours and then sown on vermiculite soaked with Knop's solution. They were placed in a growth chamber at 25° C. with a 16/8 h light/dark period at 50 μmol·m^−2·s^−1. […] The absorbance of the extract was recorded at 665 nm. In addition, chlorophyll extracts from fresh leaves and leaf tips incubated in deionised water were measured. […] Relative activity of the compound at this concentration was calculated (Tab. 3). […]
Counter-ions that a name gives are not always drawn.
Measured metric: concentration with highest activity

Ask: Look up and state reported concentration with highest activity for Fc1cc(F)cc(CNc2ncnc3nc[nH]c23)c1
Result: 10^−5 mol · l^−1

Ask: Look up and state reported concentration with highest activity for CC(C)=CCNc1ncnc2[nH]cnc12.CS(=O)(=O)O [iP mesylate]
Result: 10^−4 mol · l^−1

Ask: Look up and state reported concentration with highest activity for CS(=O)(=O)O.Fc1cc(F)cc(CNc2ncnc3nc[nH]c23)c1 [3.5diFBAP mesylate]
Result: 10^−5 mol · l^−1

Ask: Look up and state reported concentration with highest activity for CC(CO)CCNc1ncnc2[nH]cnc12.CS(=O)(=O)O (racemic) [DHZ mesylate]
Result: 10^−4 mol · l^−1

Ask: Look up and state reported concentration with highest activity for Fc1ccc(CNc2ncnc3nc[nH]c23)c(F)c1 [6-(2.4-difluorobenzylamino)purine (2.4diFBAP)]
Result: 10^−5 mol · l^−1

Ask: Look up and state reported concentration with highest activity for Fc1ccc(CNc2ncnc3nc[nH]c23)c(F)c1 [2MBAP mesylate]
Result: 10^−4 mol · l^−1

Ask: Look up and state reported concentration with highest activity for CS(=O)(=O)O.Fc1ccc(CNc2ncnc3nc[nH]c23)c(F)c1 [2.4diFBAP mesylate]
Result: 10^−5 mol · l^−1

====

Protocol details: Aqueous solubility: concentration of saturated solution by HPLC
Assay type: physicochemical
Condition notes: thermodynamic from solid; saturated solution in water, cytokinin mesylate; read-out: c of CK mesylate
Measured metric: solubility thermodynamic (mM)
Answer in mM, number only, no unit symbol.

Ask: Look up and state reported solubility thermodynamic for CS(=O)(=O)O.c1ccc(CNc2ncnc3nc[nH]c23)cc1 [BAP mesylate, 6-benzylaminopurine mesylate]
Result: 354

Ask: Look up and state reported solubility thermodynamic for CS(=O)(=O)O.Oc1ccccc1CNc1ncnc2nc[nH]c12 [oT mesylate, 6-(2-hydroxybenzylamino)purine mesylate]
Result: 82.3

Ask: Look up and state reported solubility thermodynamic for CS(=O)(=O)O.Oc1cccc(CNc2ncnc3nc[nH]c23)c1 [mT mesylate, 6-(3-hydroxybenzylamino)purine mesylate]
Result: 24

Ask: Look up and state reported solubility thermodynamic for COc1cccc(CNc2ncnc3nc[nH]c23)c1.CS(=O)(=O)O [3MeOBAP mesylate, 6-(3-methoxybenzylamino)purine mesylate]
Result: 47.5

Ask: Look up and state reported solubility thermodynamic for CS(=O)(=O)O.c1coc(CNc2ncnc3nc[nH]c23)c1 [Kinetin mesylate, 6-furfurylaminopurine mesylate]
Result: 92.6

====

Protocol details: Solubility in organic solvents (progressive solvent addition)
Type: physicochemical
Condition notes: DMF, organic solvent or mixture, thermodynamic from solid; read-out: Solubility in DMF
Experimental: Solubility in organic solvents was measured using the following protocol. Approximately 25 mg portions of meta-topolin and crystalline meta-topolin mesylate salt were placed in 48 different vials, separately. 5 volume aliquots of each solvent were added progressively (repeatedly) to the vials. After each addition, the mixture was checked for dissolution and if no dissolution was visible, the procedure was continued until dissolution was observed, or until 50 volumes have been added.
Measured metric: solubility (µg/mL)
Answer in µg/mL, number only, no unit symbol.

Ask: Look up and state reported solubility for Oc1cccc(CNc2ncnc3nc[nH]c23)c1 [meta-topolin (mT), 6-(3-hydroxybenzylamino)purine]
Result: 6000

Ask: Look up and state reported solubility for CS(=O)(=O)O.Oc1cccc(CNc2ncnc3nc[nH]c23)c1 [mT mesylate, 6-(3-hydroxybenzylamino)purine mesylate]
Result: 6000

====

Test system: K562 (chronic myeloid leukemia)
Protocol details: In vitro cytotoxicity, Calcein AM assay, K-562
Assay type: cell-based
Condition notes: Homo sapiens, K562, 72 h, 3-day Calcein-AM assay
Would you kindly list pIC50 for each of these compounds?
For clarity, pIC50 is expressed as the negative log10 of concentration in mol/L.

Ask: Look up and state reported pIC50 for Clc1ccccc1CNc1ncnc2nc[nH]c12 [2ClBAP, 6-(2-chlorobenzylamino)purine]
Result: 4.00

Ask: Look up and state reported pIC50 for Oc1cccc(CNc2ncnc3nc[nH]c23)c1 [meta-topolin (mT), 6-(3-hydroxybenzylamino)purine]
Result: 3.89

Ask: Look up and state reported pIC50 for c1ccc(CNc2ncnc3nc[nH]c23)cc1 [BAP, 6-benzylaminopurine]
Result: 3.86

====

Tested on: K562 (chronic myeloid leukemia)
Protocol details: In vitro cytotoxicity, Calcein AM assay, K-562
Type: cell-based
Condition notes: 3-day Calcein-AM assay, mesylate
Counter-ions that a name gives are not always drawn.
Measured metric: pIC50
For clarity, pIC50 is expressed as the negative log10 of concentration in mol/L.

Ask: Look up and state reported pIC50 for COc1ccc(CNc2ncnc3nc[nH]c23)cc1 [4MeOBAP mesylate, 6-(4-methoxybenzylamino)purine mesylate]
Result: 3.93

Ask: Look up and state reported pIC50 for COc1ccccc1CNc1ncnc2nc[nH]c12.CS(=O)(=O)O [2MeOBAP mesylate, 6-(2-methoxybenzylamino)purine mesylate]
Result: 3.93

Ask: Look up and state reported pIC50 for CS(=O)(=O)O.Oc1cccc(CNc2ncnc3nc[nH]c23)c1 [mT mesylate, 6-(3-hydroxybenzylamino)purine mesylate]
Result: 3.85

Ask: Look up and state reported pIC50 for CS(=O)(=O)O.Fc1ccccc1CNc1ncnc2nc[nH]c12 [2FBAP mesylate, 6-(2-fluorobenzylamino)purine mesylate]
Result: 4.15

Ask: Look up and state reported pIC50 for CS(=O)(=O)O.Clc1ccccc1CNc1ncnc2nc[nH]c12 [2ClBAP mesylate, 6-(2-chlorobenzylamino)purine mesylate]
Result: 4.04

Ask: Look up and state reported pIC50 for CS(=O)(=O)O.Fc1cccc(CNc2ncnc3nc[nH]c23)c1 [3FBAP mesylate, 6-(3-fluorobenzylamino)purine mesylate]
Result: 3.87

====

Tested on: G361 (malignant melanoma)
Protocol details: In vitro cytotoxicity, Calcein AM assay, G-361
Type: cell-based
Condition notes: Homo sapiens, 72 h, 3-day Calcein-AM assay
Measured metric: IC50 (µM)
Answer in µM, number only, no unit symbol.

Ask: Look up and state reported IC50 for Fc1ccccc1CNc1ncnc2nc[nH]c12
Result: 106

Ask: Look up and state reported IC50 for Oc1ccccc1CNc1ncnc2nc[nH]c12 [ortho-topolin (oT), 6-(2-hydroxybenzylamino)purine]
Result: 103

Ask: Look up and state reported IC50 for COc1cccc(CNc2ncnc3nc[nH]c23)c1
Result: 125

Ask: Look up and state reported IC50 for Clc1cccc(CNc2ncnc3nc[nH]c23)c1
Result: 149

Ask: Look up and state reported IC50 for Clc1ccccc1CNc1ncnc2nc[nH]c12
Result: 56.6

====

System: cytokinin-dependent tobacco callus
Protocol details: Tobacco callus biotest (stimulation of plant cell division)
Assay type: cell-based, Nicotiana tabacum L. cv. Wisconsin 38
Condition notes: callus growth at concentration with highest activity; 10^−5 M BAP = 100%
Structures can show the parent of a compound that is named as a salt.
Measured metric: activity (%) [10^−5 mol · l^−1 BAP = 100%]

Ask: Look up and state reported activity (%) [10^−5 mol · l^−1 BAP = 100%] for CS(=O)(=O)O.Fc1ccccc1CNc1ncnc2nc[nH]c12 [2FBAP mesylate, 6-(2-fluorobenzylamino)purine mesylate]
Result: 110%

Ask: Look up and state reported activity (%) [10^−5 mol · l^−1 BAP = 100%] for CC(C)=CCNc1ncnc2[nH]cnc12.CS(=O)(=O)O [iP mesylate]
Result: 95%

Ask: Look up and state reported activity (%) [10^−5 mol · l^−1 BAP = 100%] for Fc1ccc(CNc2ncnc3nc[nH]c23)c(F)c1 [2MBAP mesylate]
Result: 121%

Ask: Look up and state reported activity (%) [10^−5 mol · l^−1 BAP = 100%] for COc1cccc(CNc2ncnc3nc[nH]c23)c1
Result: 76%

Ask: Look up and state reported activity (%) [10^−5 mol · l^−1 BAP = 100%] for COc1ccccc1CNc1ncnc2nc[nH]c12
Result: 79%

Ask: Look up and state reported activity (%) [10^−5 mol · l^−1 BAP = 100%] for CC(CO)CCNc1ncnc2nc[nH]c12 (racemic) [Dihydrozeatin (DHZ), dihydrozeatin]
Result: 78%

Ask: Look up and state reported activity (%) [10^−5 mol · l^−1 BAP = 100%] for COc1cccc(CNc2ncnc3nc[nH]c23)c1.CS(=O)(=O)O [3MeOBAP mesylate, 6-(3-methoxybenzylamino)purine mesylate]
Result: 83%

Ask: Look up and state reported activity (%) [10^−5 mol · l^−1 BAP = 100%] for COc1ccccc1CNc1ncnc2nc[nH]c12.CS(=O)(=O)O [2MeOBAP mesylate, 6-(2-methoxybenzylamino)purine mesylate]
Result: 82%

Ask: Look up and state reported activity (%) [10^−5 mol · l^−1 BAP = 100%] for C/C(=C\CNc1ncnc2nc[nH]c12)CO [trans-zeatin (tZ), trans-zeatin]
Result: 109%

Ask: Look up and state reported activity (%) [10^−5 mol · l^−1 BAP = 100%] for Clc1cccc(CNc2ncnc3nc[nH]c23)c1
Result: 94%

Ask: Look up and state reported activity (%) [10^−5 mol · l^−1 BAP = 100%] for CS(=O)(=O)O.Oc1ccccc1CNc1ncnc2nc[nH]c12 [oT mesylate, 6-(2-hydroxybenzylamino)purine mesylate]
Result: 87%

Ask: Look up and state reported activity (%) [10^−5 mol · l^−1 BAP = 100%] for CS(=O)(=O)O.Oc1cccc(CNc2ncnc3nc[nH]c23)c1 [mT mesylate, 6-(3-hydroxybenzylamino)purine mesylate]
Result: 111%

Ask: Look up and state reported activity (%) [10^−5 mol · l^−1 BAP = 100%] for CC(CO)CCNc1ncnc2[nH]cnc12.CS(=O)(=O)O (racemic) [DHZ mesylate]
Result: 78%

Ask: Look up and state reported activity (%) [10^−5 mol · l^−1 BAP = 100%] for Oc1ccccc1CNc1ncnc2nc[nH]c12 [ortho-topolin (oT), 6-(2-hydroxybenzylamino)purine]
Result: 86%

Ask: Look up and state reported activity (%) [10^−5 mol · l^−1 BAP = 100%] for CS(=O)(=O)O.Fc1ccc(CNc2ncnc3nc[nH]c23)cc1 [4FBAP mesylate, 6-(4-fluorobenzylamino)purine mesylate]
Result: 126%

Ask: Look up and state reported activity (%) [10^−5 mol · l^−1 BAP = 100%] for CS(=O)(=O)O.Fc1cccc(CNc2ncnc3nc[nH]c23)c1 [3FBAP mesylate, 6-(3-fluorobenzylamino)purine mesylate]
Result: 137%

Ask: Look up and state reported activity (%) [10^−5 mol · l^−1 BAP = 100%] for CS(=O)(=O)O.Clc1ccccc1CNc1ncnc2nc[nH]c12 [2ClBAP mesylate, 6-(2-chlorobenzylamino)purine mesylate]
Result: 97%

Ask: Look up and state reported activity (%) [10^−5 mol · l^−1 BAP = 100%] for Oc1cccc(CNc2ncnc3nc[nH]c23)c1 [meta-topolin (mT), 6-(3-hydroxybenzylamino)purine]
Result: 105%

Ask: Look up and state reported activity (%) [10^−5 mol · l^−1 BAP = 100%] for Clc1ccccc1CNc1ncnc2nc[nH]c12
Result: 93%

Ask: Look up and state reported activity (%) [10^−5 mol · l^−1 BAP = 100%] for c1ccc(CNc2ncnc3nc[nH]c23)cc1
Result: 100%

Ask: Look up and state reported activity (%) [10^−5 mol · l^−1 BAP = 100%] for CS(=O)(=O)O.Clc1cccc(CNc2ncnc3nc[nH]c23)c1 [3ClBAP mesylate, 6-(3-chlorobenzylamino)purine mesylate]
Result: 101%

Ask: Look up and state reported activity (%) [10^−5 mol · l^−1 BAP = 100%] for CS(=O)(=O)O.c1ccc(CNc2ncnc3nc[nH]c23)cc1 [BAP mesylate, 6-benzylaminopurine mesylate]
Result: 104%

Ask: Look up and state reported activity (%) [10^−5 mol · l^−1 BAP = 100%] for C/C(=C\CNc1ncnc2[nH]cnc12)CO.CS(=O)(=O)O [tZ mesylate]
Result: 111%
